# Measured target: cAMP-dependent protein kinase catalytic subunit alpha (Homo sapiens);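 note: mean percent inhibition of PKA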
# Protocol conditions: at 1 µM
inhibition values for the compounds below.
The reply should contain only the number, in %.

Find the recorded inhibition belonging to c1ccc(Oc2ccc(Nc3ncc(-c4ccccc4)o3)cc2)cc1 and report it. 5.43

Find the recorded inhibition belonging to O=C(Nc1n[nH]c2nc(-c3ccco3)ccc12)C1CC1 and report it. 4.07

Find the recorded inhibition belonging to FC(F)(F)c1cccc(Nc2nccc(-c3cnn4nc(-c5ccccc5)ccc34)n2)c1 and report it. 0.52

* * *

# Measured target: NT-3 growth factor receptor (Homo sapiens) (UniProt Q16288);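 note: mean percent inhibition of TRKC, reported within the GSK PKIS dataset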
# Sequence (Q16288 32-839 limits assumed): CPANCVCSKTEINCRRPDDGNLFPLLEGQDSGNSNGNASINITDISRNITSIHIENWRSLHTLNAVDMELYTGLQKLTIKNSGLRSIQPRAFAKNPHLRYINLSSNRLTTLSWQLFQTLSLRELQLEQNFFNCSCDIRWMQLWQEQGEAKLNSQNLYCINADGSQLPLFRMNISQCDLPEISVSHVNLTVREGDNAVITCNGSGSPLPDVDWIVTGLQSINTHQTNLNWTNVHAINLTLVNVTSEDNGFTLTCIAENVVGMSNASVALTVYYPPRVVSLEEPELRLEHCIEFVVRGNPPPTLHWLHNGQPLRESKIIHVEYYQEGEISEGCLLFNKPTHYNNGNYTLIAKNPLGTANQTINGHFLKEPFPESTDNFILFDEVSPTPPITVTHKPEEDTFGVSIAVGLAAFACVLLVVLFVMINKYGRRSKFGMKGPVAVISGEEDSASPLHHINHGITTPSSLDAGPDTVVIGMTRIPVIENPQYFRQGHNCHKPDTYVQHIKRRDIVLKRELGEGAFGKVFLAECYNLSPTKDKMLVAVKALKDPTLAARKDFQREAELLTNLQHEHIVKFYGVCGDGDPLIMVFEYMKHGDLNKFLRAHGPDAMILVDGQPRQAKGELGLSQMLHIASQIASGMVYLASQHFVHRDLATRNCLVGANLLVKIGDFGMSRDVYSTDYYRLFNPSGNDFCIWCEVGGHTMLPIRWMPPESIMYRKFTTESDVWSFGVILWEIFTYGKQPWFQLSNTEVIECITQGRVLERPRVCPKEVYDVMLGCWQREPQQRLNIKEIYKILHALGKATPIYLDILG
# Protocol conditions: at 0.1 µM
Quantity: inhibition (%)
The reply should contain only the number, in %.

Reference set (5 entries):
compound=N#Cc1ccc(Oc2nccc(-c3c(-c4ccc(F)cc4)ncn3C3CCNCC3)n2)cc1 observed_result=2.17
compound=CCN(CC)Cc1ccc(Nc2nccc(-c3cnn4ncccc34)n2)cc1 observed_result=2.83
compound=Fc1ccc(-c2ncn(CCCN3CCOCC3)c2-c2ccncc2)cc1 observed_result=-0.42
compound="Nc1nccc(-c2c(-c3ccc(F)cc3)ncn2C2CCC(O)CC2)n1 (stereo not given)" observed_result=2
compound=COc1cc(Nc2ncc3c(C)nc(-c4cccc(C(F)(F)F)c4)n3n2)cc(OC)c1OC observed_result=4.76

Find the recorded inhibition belonging to Fc1ccc(-c2ncn(C3CCNCC3)c2-c2ccnc(Oc3ccc4c(c3)OCO4)n2)cc1 and report it. 4.02

Find the recorded inhibition belonging to NS(=O)(=O)c1ccc(Nc2cc(-c3ccc(O)c(F)c3)n[nH]2)cc1 and report it. 10.5

* * *

inhibition values for the molecules below.
# Measured target: Serine/threonine-protein kinase D2 (Homo sapiens);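 note: reported percent inhibition values are means, part of the GSK PKIS kinase panel screen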
# Protocol conditions: at 0.1 µM
The reply should contain only the number, in %.

Reference set (10 entries):
molecule=COc1cc2ncn(-c3cc(OCc4ccccc4C(F)(F)F)c(C(C)=O)s3)c2cc1OC measured_target="Serine/threonine-protein kinase D2 (Homo sapiens)" quantity=inhibition observed_result=2.5
molecule=NC(=O)c1ccc(Oc2nccc(-c3c(-c4ccc(F)cc4)ncn3C3CCNCC3)n2)cc1 measured_target="Serine/threonine-protein kinase D2 (Homo sapiens)" quantity=inhibition observed_result=4.04
molecule=COc1cc2ncn(-c3cc(OCCc4ccccc4)c(C(N)=O)s3)c2cc1OC measured_target="Serine/threonine-protein kinase D2 (Homo sapiens)" quantity=inhibition observed_result=3.79
molecule=CCS(=O)(=O)c1ccc(OC)c(Nc2ncc(-c3cccc(-c4ccccc4F)c3)o2)c1 measured_target="Serine/threonine-protein kinase D2 (Homo sapiens)" quantity=inhibition observed_result=1.33
molecule=CN1CCN(CCCNc2nc3ccc(Oc4ccc(NC(=O)Nc5cc(C(F)(F)F)ccc5F)cc4)cc3[nH]2)CC1 measured_target="Serine/threonine-protein kinase D2 (Homo sapiens)" quantity=inhibition observed_result=-2.52
molecule=Fc1ccc(-c2nc3n(c2-c2ccncc2)CCS3)cc1 measured_target="Serine/threonine-protein kinase D2 (Homo sapiens)" quantity=inhibition observed_result=2.09
molecule=O=C(Nc1n[nH]c2nc(-c3ccco3)ccc12)C1CC1 measured_target="Serine/threonine-protein kinase D2 (Homo sapiens)" quantity=inhibition observed_result=-0.13
molecule=CCc1ccc(Oc2nccc(-c3c(-c4ccc(F)cc4)ncn3C3CCNCC3)n2)cc1 measured_target="Serine/threonine-protein kinase D2 (Homo sapiens)" quantity=inhibition observed_result=4.63
molecule=Clc1ccc(CNc2nccc(-c3cnn4ncccc34)n2)cc1 measured_target="Serine/threonine-protein kinase D2 (Homo sapiens)" quantity=inhibition observed_result=1.12
molecule=Fc1ccc(-c2ncn(C3CCNCC3)c2-c2ccnc(Oc3ccc(F)c(F)c3)n2)cc1 measured_target="Serine/threonine-protein kinase D2 (Homo sapiens)" quantity=inhibition observed_result=1.25

Find the recorded inhibition belonging to COc1ccc(C2=C(N3CCc4ccccc43)C(=O)NC2=O)cc1 and report it. 5.06

Find the recorded inhibition belonging to COC(=O)Nc1nc2ccc(Sc3ccc(NC(=O)Nc4cc(C(F)(F)F)ccc4F)cc3)cc2[nH]1 and report it. -0.22

Find the recorded inhibition belonging to CN(C)CCCNc1nccc(-c2c(-c3ccc(F)cc3)nn3cc(C(F)(F)F)ccc23)n1 and report it. -1.36

Find the recorded inhibition belonging to CN(c1ccc(NC(=O)Nc2c(Cl)cccc2Cl)cc1)c1ccnc(Nc2cccc(CS(C)(=O)=O)c2)n1 and report it. 0.57

Find the recorded inhibition belonging to Cc1ccc(C(=O)NC(C)C)cc1-c1ccc(C(=O)NCC2CC2)cc1 and report it. -1.97

Find the recorded inhibition belonging to NC(=O)c1cc(-c2ccc(F)cc2)cc(-c2ccncc2)c1N and report it. 3.51
